assay: Determination of cataleptic effect (undesired side effect); type: in vivo, rats; conditions: rat, in vivo, ip; rats, intraperitoneally; recorded every 30 minutes over a 6-hour period; read-out: ED50 (dose at which 50% of the animals are cataleptic)
measured parameter: TD50 at 6 h (mg/kg)
Write the answer as a number in mg/kg, unit excluded.

Reported TD50 at 6 h, molecule CSc1ccc2c(c1)C(N1CCN(C)CC1)Cc1cc(C)ccc1S2.O=C(O)/C=C\C(=O)O (centres unmarked) : ____ 25

###

The entries below are paired with their reported LD50 at 24 h.
test: Determination of toxicity in mice (24-hour-values); assay type: in vivo; conditions: mouse, in vivo, po, read-out: ED50 (toxicity)
Write the answer as a number in mg/kg, unit excluded.

| compound | value observed |
| --- | --- |
| CSc1ccc2c(c1)C(N1CCN(C)CC1)Cc1cc(C)ccc1S2.O=C(O)/C=C\C(=O)O (centres unmarked) | 450 |

Now examine the next entry.
Reported LD50 at 24 h, compound COc1ccc2c(c1)CC(N1CCN(C)CC1)c1cc(SC)ccc1S2.O=C(O)/C=C\C(=O)O (centres unmarked) : ____ 1880
